TARGET_SYSTEM: JAK1 (recombinant purified GST-tagged catalytic domain) (Homo sapiens (Human), UniProt P23458)
Sequence (P23458 875-1153): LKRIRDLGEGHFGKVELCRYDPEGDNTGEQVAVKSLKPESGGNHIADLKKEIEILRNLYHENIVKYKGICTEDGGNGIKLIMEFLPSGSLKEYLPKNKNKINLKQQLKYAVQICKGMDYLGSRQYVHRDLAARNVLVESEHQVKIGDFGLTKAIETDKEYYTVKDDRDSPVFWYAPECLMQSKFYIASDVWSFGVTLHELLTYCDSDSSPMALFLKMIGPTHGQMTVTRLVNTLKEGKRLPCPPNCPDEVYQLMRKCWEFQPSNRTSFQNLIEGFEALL
MEASUREMENT_PROTOCOL: Jak Biochemical HTRF Assay (JAK1)
TEST_SETTINGS: [ATP] 31.8 μM
ENDPOINT_NAME: IC50 (nM)
Numbers only, in nM.

| MOLECULE | IC50 / nM |
| --- | --- |
| CO[C@@H](c1ccc(Nc2nn([C@]3(CC#N)CC[C@@H](C(=O)OC(C)(C)C)OC3)c3cc[nH]c(=O)c23)cc1)C(F)(F)F (single isomer, unassigned) [Example 21-8] | 0.38 |

Each molecule below has a recorded value; state its IC50.
1. CN(C)c1ccc2cc(Nc3nn([C@]4(CC#N)CCCOC4)c4cc[nH]c(=O)c34)ccc2n1 [Example 5-225]
2. CN(C)S(=O)(=O)c1ccc(Nc2nn(C3(CC#N)CCN(C(=O)Oc4ccccc4)CC3)c3cc[nH]c(=O)c23)cc1 [Example 10-2]

Solution:
0.15
0.19

Here are 2 molecules. What values of IC50 were reported for them?
1. CC(C)C(C)(C)S(=O)(=O)c1ccc(Nc2nn([C@]3(CC#N)CCCOC3)c3cc[nH]c(=O)c23)cc1 [Example 5-192]
2. N#CC[C@]1(n2nc(Nc3ccc(Cl)cc3)c3c(=O)[nH]ccc32)CCOC1 (single isomer, unassigned) [Example 5-242]

Solution:
[0.17, 14]

Please give IC50 for each item listed below.
1. CC(C)(C)OC(=O)[C@@H]1CC[C@](CC#N)(n2nc(Nc3ccc(S(C)(=O)=O)cc3)c3c(=O)[nH]ccc32)CO1 (racemic) [Example 5-35]
2. CC(C)(C)OC(=O)N1CC[C@](CC#N)(n2nc(Nc3ccc4c(c3)CN(CC(F)(F)F)S4(=O)=O)c3c(=O)[nH]ccc32)[C@H](F)C1 [Example 5-24]
3. CN(C)S(=O)(=O)c1ccc(Nc2nn(C3(CC#N)CCN(C(=O)CC(C)(C)C)CC3)c3cc[nH]c(=O)c23)cc1 [Example 9-23]

Solution:
3.43
0.2
0.14
